# System Under Test: T1, CTLA4 of the CTLA4:B7-1[Biotinylated] Inhibitor Screening Assay Kit (BPS Bioscience) (human, UniProt P16410 37-162, limits assumed)
# T1 construct: Kit protein
# T1 sequence: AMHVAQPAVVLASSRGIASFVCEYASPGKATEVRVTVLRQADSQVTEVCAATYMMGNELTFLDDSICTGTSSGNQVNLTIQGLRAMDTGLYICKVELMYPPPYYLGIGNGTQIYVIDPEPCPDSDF
# Procedure Details: CTLA4:B7-1[Biotinylated] Inhibitor Screening Assay Kit, synthetic peptide against biotinylated B7-1
Bridges are numbered along the chain shown (N, C = ends). Where no end group is shown, it is not given here.
Readout Name: IC50 (µM)

GCMHPFLPIVSHHFCER (disulfide 2-15 (inferred), chemically synthesised, glycine added to the N-terminus; also called synthesized peptide (Clone No. #19)) [Gly-clone #19: GCMHPFLPIVSHHFCER]	11.5
